Please provide measured ΔTm for the entries that follow.
Target: Cyclin-dependent kinase 2 (Homo sapiens) (UniProt P24941)
Conditions: Compound concentration 20.0 uM
Description: Thermal Shift Assay. Domain: start/stop: M1-L298
Residues, ends and D or L forms follow the SMILES beside them. *: point of attachment. Cbz = O=C(OCc1ccccc1)*; CH2F = FC*

>  <molecule>
N[C@H](C(=O)O)[C@H](OCc1cccc(NC(=O)c2ccc(C(F)(F)F)cc2)c1)C(=O)O

>  <measurement-label>
ΔTm

>  <reported-measurement>
-0.09 °C

$$$$
>  <molecule>
CCOC(=O)NCCCC(=O)NCCc1ccccc1

>  <measurement-label>
ΔTm

>  <reported-measurement>
-0.09 °C

$$$$

Here is another molecule to look at.
ΔTm reported for this molecule COC(=O)CC[C@H](NC(=O)[C@H](C)NC(=O)OCc1ccccc1)C(=O)N[C@H](C(=O)N[C@@H](CC(=O)OC)C(=O)CF)C(C)C (Cbz-AE(OMe)VD(OMe)-CH2F) : -0.09 °C

###

Target: Casein kinase I isoform delta (Homo sapiens) (UniProt P48730)
Sequence (P48730 whole entry, looked up, canonical isoform): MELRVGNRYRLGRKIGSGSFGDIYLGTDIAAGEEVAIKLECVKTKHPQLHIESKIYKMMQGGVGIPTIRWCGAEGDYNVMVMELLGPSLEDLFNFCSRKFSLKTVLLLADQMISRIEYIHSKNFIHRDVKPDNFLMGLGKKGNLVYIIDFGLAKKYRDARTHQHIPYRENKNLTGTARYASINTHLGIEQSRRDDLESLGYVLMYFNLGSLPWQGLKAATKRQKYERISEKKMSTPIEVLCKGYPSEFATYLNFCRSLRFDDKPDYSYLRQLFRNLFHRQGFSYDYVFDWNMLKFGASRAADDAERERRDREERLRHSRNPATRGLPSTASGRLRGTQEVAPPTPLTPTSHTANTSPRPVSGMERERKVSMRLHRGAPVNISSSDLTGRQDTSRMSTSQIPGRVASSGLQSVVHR
Conditions: Compound concentration 20.0 uM
Description: Thermal Shift Assay. Domain: start/stop: M1-K294
measurement-label: ΔTm

>  <chem-smiles>
CN1CCN(c2cc(C(=O)Nc3ncc(SCc4cccc(C(F)(F)F)c4)s3)ccn2)CC1

>  <reported-measurement>
-0.03 °C

$$$$
>  <chem-smiles>
CS(=O)(=O)n1cc2c(n1)CN([C@H]1CO[C@H](c3cc(F)ccc3F)[C@@H](N)C1)C2

>  <reported-measurement>
-0.33 °C

$$$$

Your task in this section: give ΔTm for each listed record.
1. O=C(NCC(=O)N1CCCCC1)Nc1ccc2nnsc2c1
2. CC/C(=C(/CC)c1ccc(O)cc1)c1ccc(O)cc1
3. CCc1oc2ccccc2c1C(=O)c1cc(Br)c(O)c(Br)c1

OUTPUT:
["0.06 °C", "-0.81 °C", "-9.78 °C"]

Your task in this section: give ΔTm for each listed record.
1. CCn1nc(C2CC2)cc1Nc1nc(C(=O)NC)nc2[nH]c3cc(-c4c(C)noc4C)c(OC)cc3c12
2. COc1ccccc1[C@H]1[C@H](C(=O)O)[C@H](c2ccccc2OC)[C@H]1C(=O)Oc1cccc2ccccc12
3. Cc1ccc([N+](=O)[O-])cc1S(=O)(=O)N(C)C
4. Nc1ncnc2nc(-c3ccc(N4CCOCC4)nc3)cc(-c3cccc(Br)c3)c12

OUTPUT:
-0.18 °C
-3.09 °C
-0.33 °C
2.63 °C

###

Target: Aurora kinase A (Homo sapiens) (UniProt O14965)
Sequence (O14965 whole entry): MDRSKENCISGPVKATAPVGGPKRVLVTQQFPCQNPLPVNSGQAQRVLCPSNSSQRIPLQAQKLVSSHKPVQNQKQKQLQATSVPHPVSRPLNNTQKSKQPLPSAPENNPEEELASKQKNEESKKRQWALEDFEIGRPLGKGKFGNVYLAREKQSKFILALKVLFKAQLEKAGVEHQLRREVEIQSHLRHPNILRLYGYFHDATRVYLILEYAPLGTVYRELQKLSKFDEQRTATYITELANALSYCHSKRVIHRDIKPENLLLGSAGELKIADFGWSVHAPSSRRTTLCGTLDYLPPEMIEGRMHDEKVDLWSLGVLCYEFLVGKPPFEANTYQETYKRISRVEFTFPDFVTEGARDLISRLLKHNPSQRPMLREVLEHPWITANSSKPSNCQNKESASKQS
Settings: Compound concentration 20.0 uM
Description: Thermal Shift Assay. Domain: start/stop: E122-S403
Rule: ΔTm under -1 °C gives Condition not met, otherwise Condition met.

>  <compound>
CC1(C)c2cccc(C(=O)NO)c2CN1c1cnc(C(F)(F)F)cn1

>  <class>
Condition not met

$$$$
>  <compound>
CC(=O)N1CCc2c(c(N3CCCc4cc(-c5cnn(C)c5)c(C(F)F)cc43)nn2C2CCOCC2)C1

>  <class>
Condition not met

$$$$
>  <compound>
O=c1[nH][nH]c(=O)c2cc(OCc3ccccc3F)ccc12

>  <class>
Condition met

$$$$
>  <compound>
Cc1cc(OCCCNCCC(N)=O)ccc1Cc1c(O[C@@H]2O[C@H](CO)[C@@H](O)[C@H](O)[C@H]2O)n[nH]c1C(C)C

>  <class>
Condition not met

$$$$
>  <compound>
O=C(NCCCn1ccnc1)c1cc2nc(-c3ccccc3)cc(-c3ccccc3)n2n1

>  <class>
Condition met

$$$$

INPUT: Kindly determine if ΔTm recorded for Cc1nc2ccccn2c1C(=O)CN1CCN(c2ccc(F)cn2)CC1 is above or exactly -1 °C.
OUTPUT: Condition not met

INPUT: Kindly determine if ΔTm recorded for CCS(=O)(=O)N1CC(CC#N)(n2cc(-c3ncnc4[nH]ccc34)cn2)C1 is above or exactly -1 °C.
OUTPUT: Condition met

INPUT: Kindly determine if ΔTm recorded for C=CCn1c(N[C@@H]2C[C@H](c3ccc(OCc4ccccc4)cc3)CN(C)C2)nc2cc[nH]c2c1=O is above or exactly -1 °C.
OUTPUT: Condition not met

INPUT: Kindly determine if ΔTm recorded for COc1cc(-c2cn(C)c(=O)c3cnccc23)cc(OC)c1CN(C)CC(=O)NCCOCCOCCNc1cccc2c1C(=O)N(C1CCC(=O)NC1=O)C2=O (stereo unspecified) is above or exactly -1 °C.
OUTPUT: Condition not met

INPUT: Kindly determine if ΔTm recorded for CCC(CC)(NC(=O)C(C)C)C(=O)N[C@@H](CCCNC(=N)N)C(=O)NC1(C(=O)NC(c2ccc(F)cc2)c2ccc(F)cc2)CCCC1 is above or exactly -1 °C.
OUTPUT: Condition met

INPUT: Kindly determine if ΔTm recorded for CC(C)(OCc1cc(-c2cccc(OC3CC3)c2)n(-c2ccccc2Cl)n1)C(=O)O is above or exactly -1 °C.
OUTPUT: Condition not met

INPUT: Kindly determine if ΔTm recorded for CC(C)c1cc(C(=O)N2Cc3ccc(CN4CCN(C)CC4)cc3C2)c(O)cc1O is above or exactly -1 °C.
OUTPUT: Condition met

INPUT: Kindly determine if ΔTm recorded for COc1cc2c(NC3CCN(C)CC3)nc(N3CCCN(C)CC3)nc2cc1OCCCN(C)C is above or exactly -1 °C.
OUTPUT: Condition not met

INPUT: Kindly determine if ΔTm recorded for CCCSc1nc2c(c(=O)n1-c1ccccc1)SCC2 is above or exactly -1 °C.
OUTPUT: Condition met

INPUT: Kindly determine if ΔTm recorded for O=C(c1ccc2[nH]ccc2c1)N1CCN(S(=O)(=O)c2ccc3[nH]c(=O)oc3c2)CC1 is above or exactly -1 °C.
OUTPUT: Condition not met
